molecular target: hVR1 (Homo sapiens, UniProt Q8NER1); construct: R710-07 (T-REx host cell line); host or cells: T-REx System cell line, called 'human keratinocyte cell line' and 'HEK 293 cells'; assay: Calcium uptake assay (FLIPR), inhibition of capsaicin-induced calcium influx; type: cell-based
Sequence (Q8NER1 whole entry): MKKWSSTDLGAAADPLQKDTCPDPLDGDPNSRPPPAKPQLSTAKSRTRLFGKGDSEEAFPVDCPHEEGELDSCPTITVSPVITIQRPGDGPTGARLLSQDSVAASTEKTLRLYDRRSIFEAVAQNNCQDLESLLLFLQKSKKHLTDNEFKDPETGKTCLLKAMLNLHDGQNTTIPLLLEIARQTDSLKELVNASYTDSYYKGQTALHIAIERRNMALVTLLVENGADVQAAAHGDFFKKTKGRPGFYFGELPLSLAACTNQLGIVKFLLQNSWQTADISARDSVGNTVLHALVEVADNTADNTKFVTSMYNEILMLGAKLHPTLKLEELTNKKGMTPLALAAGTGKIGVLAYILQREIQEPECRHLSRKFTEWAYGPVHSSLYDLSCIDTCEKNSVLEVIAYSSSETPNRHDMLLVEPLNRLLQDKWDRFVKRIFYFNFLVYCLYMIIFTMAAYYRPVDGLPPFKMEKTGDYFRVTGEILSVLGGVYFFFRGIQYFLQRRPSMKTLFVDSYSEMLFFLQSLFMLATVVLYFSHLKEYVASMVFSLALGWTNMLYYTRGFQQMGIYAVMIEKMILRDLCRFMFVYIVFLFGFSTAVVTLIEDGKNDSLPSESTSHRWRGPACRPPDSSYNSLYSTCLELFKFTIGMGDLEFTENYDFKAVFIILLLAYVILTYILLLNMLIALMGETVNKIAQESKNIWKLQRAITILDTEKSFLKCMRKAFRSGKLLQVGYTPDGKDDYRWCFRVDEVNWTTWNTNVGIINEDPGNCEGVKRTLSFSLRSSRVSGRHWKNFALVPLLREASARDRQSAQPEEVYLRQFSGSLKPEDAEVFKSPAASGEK
pIC50: −log10 of the molar value.
Items are presented alongside their recorded pIC50.
OUTCOME MEASURE: pIC50

• CC(NC(=O)[C@@H]1COc2cc(C(C)(C)C)ccc2O1)c1ccc2[nH]ncc2c1 (single isomer, unassigned) [Compound 6] = 6.99
• CC(NC(=O)C1CCc2nc(C(C)(C)C(F)(F)F)ccc2C1)c1ccc2[nH]ncc2c1 (centres unmarked) [Compound 10] = 8.10
• O=C(Nc1cnc2c(c1)COCC2)[C@H]1COc2cc(C(F)(F)F)ccc2O1 [Compound 17] = 6.85
• CC(NC(=O)[C@H]1COc2cc(C(C)(C)C)ccc2O1)c1ccc2[nH]ncc2c1 (single isomer, unassigned) [Compound 7] = 7.54
• CC(C)(c1ccc2c(n1)CC[C@@H](C(=O)Nc1cnc3c(c1)COCC3)C2)C(F)(F)F (single isomer, unassigned) [Compound 18] = 8.22
• C[C@@H](NC(=O)[C@@H]1CCc2nc(C(C)(C)C(F)(F)F)ccc2C1)c1cnn2c1OCCC2 [Compound 20] = 6.51
• CC(=O)N1CCc2ccc(NC(=O)[C@@H]3CCc4nc(C(C)(C)C(F)(F)F)ccc4C3)cc21 [Compound 23] = 8.70
• CC(C)(c1ccc2c(n1)CC[C@@H](C(=O)Nc1cnc3ccccc3c1)C2)C(F)(F)F [Compound 21] = 7.48
• CC(NC(=O)[C@@H]1COc2cc(C(F)(F)F)ccc2O1)c1ccc2[nH]ncc2c1 (some centres unmarked) [Compound 14] = 6.09
• C[C@@H](NC(=O)[C@H]1COc2cc(C(F)(F)F)ccc2O1)c1ccc2[nH]ncc2c1 [Compound 26] = 7.03
• C[C@@H](NC(=O)[C@@H]1COc2cc(C(F)(F)F)ccc2O1)c1ccc2[nH]ncc2c1 [Compound 25] = 6.82
• CC(C)(c1ccc2c(n1)CC[C@H](C(=O)Nc1cnc3c(c1)COCC3)C2)C(F)(F)F (single isomer, unassigned) [Compound 19] = 8.05
• CC(C)(c1ccc2c(n1)CC[C@@H](C(=O)Nc1cnc3sc(CO)nc3c1)C2)C(F)(F)F [Compound 15] = 7.72
• CC(NC(=O)[C@H]1COc2cc(C(F)(F)F)ccc2O1)c1ccc2[nH]ncc2c1 (some centres unmarked) [Compound 13] = 7.19

###

target: hVR1 (Homo sapiens, UniProt Q8NER1); construct: R710-07 (T-REx host cell line); host or cells: T-REx System cell line, called 'human keratinocyte cell line' and 'HEK 293 cells'; assay: Calcium uptake assay (FLIPR), inhibition of low pH (proton)-induced calcium influx; type: cell-based; settings: agonist protons, low pH solution pH 5.7; cells expressing hVR1
OUTCOME MEASURE: IC50 (nM)

- CC(C)(C)c1ccc2c(c1)OCC(C(=O)NCc1ccnc3ccccc13)O2 (centres unmarked): 240
- CC(C)(c1ccc2c(n1)CC[C@H](C(=O)Nc1cnc3c(c1)COCC3)C2)C(F)(F)F (single isomer, unassigned): 67
- O=C(NCc1ccnc2ccccc12)C1=Cc2cc(Cl)ccc2OC1: 143
- C[C@@H](NC(=O)[C@H]1CCc2nc(C(C)(C)C(F)(F)F)ccc2C1)c1ccc2[nH]ncc2c1: 6
- CC1(C(=O)Nc2cnc3sc(CO)nc3c2)CCc2nc(C(C)(C)C(F)(F)F)ccc2C1 (centres unmarked): 121
